From: patent US8759333B2

- system.under.test: mutant MGL (mut-MGLL 11-313 L179S L186S) (Homo sapiens, UniProt Q99685, L169S/L176S)
- Construct: purified mutant MGL (mut-MGLL 11-313 L179S L186S)
- procedure.text: MGL Enzyme Activity Assay, purified mutant MGL, 4MU-B substrate
- condition.notes: mutant MGL 5 nM, 4MU-B 10 μM, 37° C.; read-out: MGL mutant inh IC50
- Description: All rate-based assays were performed in black 384-well polypropylene PCR microplates (Abgene) in a total volume of 30 μL. […] The fluorescence change due to 4MU-B cleavage was monitored with excitation and emission wavelengths of 335 and 440 nm, respectively, and a bandwidth of 10 nm (Safire^2, Tecan) at 37° C. for 5 min. […]
pIC50: −log10 of the molar value.
measurement.type: pIC50

Some compounds with recorded pIC50:
O=C(NC1CN(C2CN(C(=O)c3ccc(Cc4ccccc4)cc3)C2)C1)c1ccccc1    6.57
O=C(c1sc2cc(Br)ccc2c1Cl)N1CC(N2CC(N3Cc4ccccc4C3=O)C2)C1 [Cpd 75]    7.82
CN(C(=O)c1nccs1)C1CN(C2CN(C(=O)c3cc4ccc(C(F)(F)F)cc4s3)C2)C1    6.32

I. O=C(NC1CN(C2CN(C(=O)c3ccc4nc(-c5cccc(C(F)(F)F)c5)oc4c3)C2)C1)c1nccs1
II. O=C(c1cc2ccc(C(F)(F)F)cc2s1)N1CC(N2CC(N3Cc4ccccc4C3=O)C2)C1
III. O=C(NC1CN(C2CN(C(=O)c3ccc4c(Br)cccc4c3)C2)C1)c1nccs1
IV. O=C(c1ccc(Cc2ccccc2)cc1)N1CC(N2CC(N3Cc4ccccc4C3=O)C2)C1
-- ask Order field: pIC50 | Direction: descending (largest first) Your reply should list the labels following the order given in the request.
-- reply II, III, I, IV
(II: 7.72, III: 7.20, I: 6.74, IV: 6.39)

A. O=C(c1ccc2oc(-c3ccccc3)nc2c1)N1CC(N2CC(N3Cc4ccccc4C3=O)C2)C1
B. O=C(c1ccc(N2CCCCC2)cc1)N1CC(N2CC(N3Cc4ccccc4C3=O)C2)C1
-- ask Field: entry with larger pIC50 (options A / B ). Write down the label attached to your selection.
-- reply A

I. O=C(NC1CN(C2CN(C(=O)c3ccc4ccn(-c5ccccc5)c4c3)C2)C1)c1nccs1
II. O=C(NC1CN(C2CN(C(=O)c3ccc(Cc4cccc(C(F)(F)F)c4)cc3)C2)C1)c1nccs1
-- ask Which of the two items, I and II , has the greater recorded pIC50? I would appreciate it if you answered with the label of your choice.
-- reply II
(II: 7.19, I: 6.78)

A. Cc1c(C(=O)N2CC(N3CC(NC(=O)c4ccccc4)C3)C2)sc2ccc(Cl)cc12
B. O=C(NC1CN(C2CN(C(=O)c3ccc(Oc4ccccc4)cc3)C2)C1)c1nccs1
C. O=C(c1ccc(Cc2cccc(C(F)(F)F)c2)cc1)N1CC(N2CC(N3Cc4ccccc4C3=O)C2)C1
-- ask Reorder: pIC50, max to min. Form field (ranking): labels in requested order.
-- reply C, B, A

A. O=C(NC1CN(C2CN(C(=O)c3ccc(-c4ccc(C(F)(F)F)cc4)cc3)C2)C1)c1nccs1
B. CS(=O)(=O)c1cccc(-c2ccc3cc(C(=O)N4CC(N5CC(N6Cc7ccccc7C6=O)C5)C4)sc3c2)c1
-- ask Param metric = pIC50; output whichever of A , B has the minimum value. Identify your selection by its label.
-- reply A

a. O=C(c1ccc2c(ccn2S(=O)(=O)c2ccccc2)c1)N1CC(N2CC(N3Cc4ccccc4C3=O)C2)C1
b. O=C(c1ccc2c(Br)cccc2c1)N1CC(N2CC(N3Cc4ccccc4C3=O)C2)C1
-- ask Which of the two items, a and b , has the greater recorded pIC50? When you have decided, please share the label of that item.
-- reply a

P. O=C(NC1CN(C2CN(C(=O)c3nc4cc(C(F)(F)F)ccc4s3)C2)C1)c1nccs1
Q. CS(=O)(=O)c1cccc(-c2ccc(C(=O)N3CC(N4CC(N5Cc6ccccc6C5=O)C4)C3)cc2)c1
R. O=C(c1ccc(-c2cc3ccccc3s2)cc1)N1CC(N2CC(N3Cc4ccccc4C3=O)C2)C1
-- ask Put the compounds in ascending order of pIC50. Answer by listing the labels in the order asked for.
-- reply P, R, Q
(P: 5.32, R: 6.12, Q: 7.72)

---

- system.under.test: MGL (Rattus norvegicus, UniProt Q8R431)
- Construct: one g rat brain was homogenized using a Polytron homogenizer; from tissue; host or cells: rat brain homogenate
- procedure.text: 2-AG Accumulation Assay in rat brain homogenate
- Type: biochemical
- condition.notes: compound @10 µM, percent of vehicle, read-out: Rat Brain 2AG % VehCntrl (%) @10 µM
measurement.type: activity at 10 µM (%)

Answered examples (2):
O=C(NC1CN(C2CN(C(=O)c3ccc4c(Br)cccc4c3)C2)C1)c1ccccc1 [Cpd 24]    73
O=C(c1ccc(-c2ccc(C(F)(F)F)s2)cc1)N1CC(N2CC(N3Cc4ccccc4C3=O)C2)C1 [Cpd 76]    725

P. O=C(c1ccc2c(ccn2-c2ccc(C(F)(F)F)cc2)c1)N1CC(N2CC(N3Cc4ccccc4C3=O)C2)C1 [Cpd 70]
Q. O=C(c1cc2ccc(C(F)(F)F)cc2s1)N1CC(N2CC(N3Cc4ccccc4C3=O)C2)C1 [Cpd 81]
-- ask I'd appreciate it if you could identify which of P and Q has the greater activity at 10 µM. # answer = label of selected item
-- reply P

I. O=C(NC1CN(C2CN(C(=O)c3ccc(-c4cccc(C(F)(F)F)c4)cc3)C2)C1)c1nccs1 [Cpd 5]
II. O=C(c1ccc2oc(-c3ccccc3)nc2c1)N1CC(N2CC(N3Cc4ccccc4C3=O)C2)C1 [Cpd 77]
-- ask Of the two listed items, I and II , which carries the larger activity at 10 µM figure? # reply format: chosen label
-- reply I

P. O=C(c1cc2cc(-c3ccccc3)ccc2s1)N1CC(N2CC(N3Cc4ccccc4C3=O)C2)C1 [Cpd 79]
Q. O=C(NC1CN(C2CN(C(=O)c3ccc4c(Br)cccc4c3)C2)C1)c1nccs1 [Cpd 19]
-- ask Among P and Q , whose measured activity at 10 µM is the smaller figure? # respond with the chosen item's label
-- reply Q
(Q: 418%, P: 676%)

---

- system.under.test: mutant MGL (Homo sapiens, UniProt Q99685, L169S/L176S)
- Construct: purified mutant MGL (mut-MGLL 11-313 L179S L186S)
- Sequence (Q99685 1-303 L169S/L176S): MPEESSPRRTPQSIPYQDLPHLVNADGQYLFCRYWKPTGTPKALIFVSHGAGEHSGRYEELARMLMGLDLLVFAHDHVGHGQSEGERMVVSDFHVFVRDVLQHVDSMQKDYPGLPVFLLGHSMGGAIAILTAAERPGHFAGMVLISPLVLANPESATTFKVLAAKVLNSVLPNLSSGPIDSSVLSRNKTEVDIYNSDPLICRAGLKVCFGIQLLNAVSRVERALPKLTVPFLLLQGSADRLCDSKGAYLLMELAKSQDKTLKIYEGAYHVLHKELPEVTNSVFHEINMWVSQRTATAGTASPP
- procedure.text: MGL ThermoFluor Assay - Mutant
- condition.notes: 0.07 mg/ml mutant MGL, 100 μM ANS, pH 7.0
pKd: −log10 of the molar value.
measurement.type: pKd

Examples with answers:
Cc1c(C(=O)N2CC(N3CC(N4Cc5ccccc5C4=O)C3)C2)sc2cc(C(F)(F)F)ccc12    8.40
O=C(c1cc2cc(-c3ccccc3)ccc2s1)N1CC(N2CC(N3Cc4ccccc4C3=O)C2)C1    7.48
O=C(c1ccc(Cc2ccccc2)cc1)N1CC(N2CC(N3Cc4ccccc4C3=O)C2)C1    7.04
O=C(c1ccc2nc(-c3cccc(C(F)(F)F)c3)oc2c1)N1CC(N2CC(N3Cc4ccccc4C3=O)C2)C1    7.40
CS(=O)(=O)c1cccc(-c2ccc3sc(C(=O)N4CC(N5CC(N6Cc7ccccc7C6=O)C5)C4)cc3c2)c1    6.98

1. O=C(c1cc2cc(Br)ccc2s1)N1CC(N2CC(N3Cc4ccccc4C3=O)C2)C1
2. O=C(NC1CN(C2CN(C(=O)c3ccc4c(ccn4S(=O)(=O)c4ccccc4)c3)C2)C1)c1nccs1
-- ask 1 or 2 : whose pKd is greater? Mark your selection by writing its label.
-- reply 2
(2: 7.48, 1: 7.11)

---

- system.under.test: wild type MGL (wt-MGLL 6H-11-313) (Homo sapiens)
- Construct: purified wild type MGL (wt-MGLL 6H-11-313); 6H (hexahistidine) (N)
- procedure.text: MGL Enzyme Activity Assay, purified wild type MGL, 4MU-B substrate
- Format: biochemical
- condition.notes: wild type MGL 5 nM, 4MU-B 10 μM, 37° C.; read-out: MGL wild type inh IC50
measurement.type: IC50 (nM)

As a guide, the following entries are already answered.
O=C(NC1CN(C2CN(C(=O)c3ccc4c(ccn4-c4ccc(F)c(F)c4)c3)C2)C1)c1nccs1 [Cpd 57]    7
O=C(c1cc2cc(-c3ccccc3)ccc2s1)N1CC(N2CC(N3Cc4ccccc4C3=O)C2)C1 [Cpd 79]    10
Cc1cc(-c2cccc(C(F)(F)F)c2)ccc1C(=O)N1CC(N2CC(NC(=O)c3nccs3)C2)C1 [Cpd 58]    8

1. CS(=O)(=O)c1cccc(-c2ccc3sc(C(=O)N4CC(N5CC(N6Cc7ccccc7C6=O)C5)C4)cc3c2)c1 [Cpd 82]
2. Cc1c(C(=O)N2CC(N3CC(NC(=O)c4nccs4)C3)C2)sc2cc(C(F)(F)F)ccc12 [Cpd 56]
-- ask Recorded IC50 values differ for 1 and 2 ; which one is higher? Answer format: the label of the selected item.
-- reply 1
